Tested on: 832693-133-R-J1-PDC multi-cell spheroids, viability
Assay: Anticancer human tumor 832693-133-R-J1-PDC patient-derived head and neck squamous carcinoma cell line growth inhibition [IpAb]
Details: second compound 0.1 µM; first compound 0.1 µM; stronger effect = lower value
Method: Combinatorial screen of targeted agents with ipatasertib and abemaciclib in multi-cell type tumor spheroids […] Compounds. […] If the clinical Cmax for an agent had not been determined, the highest concentration tested was 10 microM. NCI60 Cell Culture. […] The optimal seeding densities for each of the cell lines at each time point assessed were determined prior to performing the concentration response studies. […]
Catalogue of viability, T/C readings, one per entry.
Answer in %, number only, no unit symbol.

COc1c(OCCCN2CCOCC2)ccc2c3n(c(=NC(=O)c4cnc(N)nc4)nc12)CCN3 + CC(C)NCC(C(=O)N1CCN(c2ncnc3c2C(C)CC3O)CC1)c1ccc(Cl)cc1; 7.23
C=CCn1c(=O)c2cnc(Nc3ccc(N4CCN(C)CC4)cc3)nc2n1-c1cccc(C(C)(C)O)n1 + CCN1CCN(Cc2ccc(Nc3ncc(F)c(-c4cc(F)c5nc(C)n(C(C)C)c5c4)n3)nc2)CC1; 51.8
CC(C)n1nc(-c2ccc3oc(N)nc3c2)c2c(N)ncnc21 + CCN1CCN(Cc2ccc(Nc3ncc(F)c(-c4cc(F)c5nc(C)n(C(C)C)c5c4)n3)nc2)CC1; 34.5
C=CC(=O)N1CCN(c2nc(=O)n(-c3c(C)ccnc3C(C)C)c3nc(-c4c(O)cccc4F)c(F)cc23)C(C)C1 (stereo not given) + CCN1CCN(Cc2ccc(Nc3ncc(F)c(-c4cc(F)c5nc(C)n(C(C)C)c5c4)n3)nc2)CC1; 78.8

Incoming: I have this compound here, Cc1nc(NC(=O)N2CCCC2C(N)=O)sc1-c1ccnc(C(C)(C)C(F)(F)F)c1 (stereo not given) + CCN1CCN(Cc2ccc(Nc3ncc(F)c(-c4cc(F)c5nc(C)n(C(C)C)c5c4)n3)nc2)CC1 , and I need its recorded viability, T/C.
Outgoing: 53.5

###

System: 832693-133-R-J1-PDC multi-cell spheroids, viability
Test: Anticancer human tumor 832693-133-R-J1-PDC cell line growth inhibition [IpAb];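 further: spheroids exposed to the drugs for one week before the viability readout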;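 on viability, T/C: 100% = DMSO vehicle control wells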
Settings: second compound 0.1 µM; first compound 0.0949 µM; stronger effect = lower value
# viability, T/C per record follows
Reply with just the number (in %).

CC(=O)c1c(C)c2cnc(Nc3ccc(N4CCNCC4)cn3)nc2n(C2CCCC2)c1=O + CCN1CCN(Cc2ccc(Nc3ncc(F)c(-c4cc(F)c5nc(C)n(C(C)C)c5c4)n3)nc2)CC1; 54.3

Incoming: Quick check: viability, T/C on 832693-133-R-J1-PDC multi-cell spheroids, viability, item CC(=O)c1c(C)c2cnc(Nc3ccc(N4CCNCC4)cn3)nc2n(C2CCCC2)c1=O + CC(C)NCC(C(=O)N1CCN(c2ncnc3c2C(C)CC3O)CC1)c1ccc(Cl)cc1 ?
Outgoing: 47.8

Incoming: Observed viability, T/C on 832693-133-R-J1-PDC multi-cell spheroids, viability for CC(C)(C)c1cnc(CSc2cnc(NC(=O)C3CCNCC3)s2)o1 + CC(C)NCC(C(=O)N1CCN(c2ncnc3c2C(C)CC3O)CC1)c1ccc(Cl)cc1 , please.
Outgoing: 146

Incoming: viability, T/C of Cn1cnc2c(F)c(Nc3ccc(Br)cc3Cl)c(C(=O)NOCCO)cc21 + CCN1CCN(Cc2ccc(Nc3ncc(F)c(-c4cc(F)c5nc(C)n(C(C)C)c5c4)n3)nc2)CC1 on 832693-133-R-J1-PDC multi-cell spheroids, viability?
Outgoing: 36.4

Incoming: GET /values?readout=viability, T/C&system=832693-133-R-J1-PDC multi-cell spheroids, viability&item= CC(C)(C)c1cnc(CSc2cnc(NC(=O)C3CCNCC3)s2)o1 + CCN1CCN(Cc2ccc(Nc3ncc(F)c(-c4cc(F)c5nc(C)n(C(C)C)c5c4)n3)nc2)CC1
Outgoing: 104

Incoming: Please tell me: viability, T/C of Cn1cnc2c(F)c(Nc3ccc(Br)cc3Cl)c(C(=O)NOCCO)cc21 + CC(C)NCC(C(=O)N1CCN(c2ncnc3c2C(C)CC3O)CC1)c1ccc(Cl)cc1 , system 832693-133-R-J1-PDC multi-cell spheroids, viability?
Outgoing: 45.5

###

Tested on: 832693-133-R-J1-PDC multi-cell spheroids, viability
Experiment: Anticancer human tumor 832693-133-R-J1-PDC cell line growth inhibition [IpAb];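 further: spheroids exposed to the drugs for one week before the viability readout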;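 on viability, T/C: 100% = DMSO vehicle control wells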
Settings: second compound 10 µM; first compound 0.0316 µM; stronger effect = lower value
observed_property: viability, T/C (%)
Kindly answer with a numeric value in %, unit omitted.

Known results for compounds:
C=CC(=O)N1CCN(c2nc(=O)n(-c3c(C)ccnc3C(C)C)c3nc(-c4c(O)cccc4F)c(F)cc23)C(C)C1 (stereo not given) + CC(C)NCC(C(=O)N1CCN(c2ncnc3c2C(C)CC3O)CC1)c1ccc(Cl)cc1; 53.4
CC(C)n1nc(-c2ccc3oc(N)nc3c2)c2c(N)ncnc21 + CC(C)NCC(C(=O)N1CCN(c2ncnc3c2C(C)CC3O)CC1)c1ccc(Cl)cc1; 53
Cn1ncc(Cl)c1-c1cc(C(=O)NC(CN)Cc2cccc(F)c2)sc1Cl (stereo not given) + CC(C)NCC(C(=O)N1CCN(c2ncnc3c2C(C)CC3O)CC1)c1ccc(Cl)cc1; 67.2
Cn1ncnc1[C@H]1c2n[nH]c(=O)c3cc(F)cc(c23)N[C@@H]1c1ccc(F)cc1 + CC(C)NCC(C(=O)N1CCN(c2ncnc3c2C(C)CC3O)CC1)c1ccc(Cl)cc1; 63.2

Next compound, viability, T/C to be filled in.
Incoming: Could you share which viability, T/C value was measured for CC1(C)CCC(CN2CCN(c3ccc(C(=O)NS(=O)(=O)c4ccc(NCC5CCOCC5)c([N+](=O)[O-])c4)c(Oc4cnc5[nH]ccc5c4)c3)CC2)=C(c2ccc(Cl)cc2)C1 + CC(C)NCC(C(=O)N1CCN(c2ncnc3c2C(C)CC3O)CC1)c1ccc(Cl)cc1 ?
Outgoing: 58.6

###

Recorded pIC50, one value per entry.
Test system: 832693-133-R-J1-PDC multi-cell spheroids, viability
Test: Anticancer human tumor 832693-133-R-J1-PDC cell line growth inhibition [IpAb];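 further: spheroids exposed to the drugs for one week before the viability readout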
Details: curve of first compound; second compound 0.1 µM
Protocol: Combinatorial screen of targeted agents with ipatasertib and abemaciclib in multi-cell type tumor spheroids […] Compounds. […] If the clinical Cmax for an agent had not been determined, the highest concentration tested was 10 microM. NCI60 Cell Culture. […] The optimal seeding densities for each of the cell lines at each time point assessed were determined prior to performing the concentration response studies. […]
Conceptually, pIC50 converts a concentration in mol/L into minus its log10.

CC(=O)c1c(C)c2cnc(Nc3ccc(N4CCNCC4)cn3)nc2n(C2CCCC2)c1=O + CC(C)NCC(C(=O)N1CCN(c2ncnc3c2C(C)CC3O)CC1)c1ccc(Cl)cc1; 7.16
C=CCn1c(=O)c2cnc(Nc3ccc(N4CCN(C)CC4)cc3)nc2n1-c1cccc(C(C)(C)O)n1 + CCN1CCN(Cc2ccc(Nc3ncc(F)c(-c4cc(F)c5nc(C)n(C(C)C)c5c4)n3)nc2)CC1; 6.86

API: the following record is the query input.
Incoming: Which value of pIC50 has been reported for CC(C)n1nc(-c2ccc3oc(N)nc3c2)c2c(N)ncnc21 + CCN1CCN(Cc2ccc(Nc3ncc(F)c(-c4cc(F)c5nc(C)n(C(C)C)c5c4)n3)nc2)CC1 in the records?
Outgoing: 7.97

###

Tested on: 832693-133-R-J1-PDC multi-cell spheroids, viability
Assay: Anticancer human tumor 832693-133-R-J1-PDC cell line growth inhibition [IpAb];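 further: spheroids exposed to the drugs for one week before the viability readout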;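 on viability, T/C: 100% = DMSO vehicle control wells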
Conditions: second compound 1 µM; first compound 0.0316 µM; stronger effect = lower value
Label Yes when viability, T/C is strictly below 50%; at or above that, label No.

Here are 8 compounds together with their reported answers.
Cn1ncc(Cl)c1-c1cc(C(=O)NC(CN)Cc2cccc(F)c2)sc1Cl (stereo not given) + CC(C)NCC(C(=O)N1CCN(c2ncnc3c2C(C)CC3O)CC1)c1ccc(Cl)cc1; Yes
CC(C)n1nc(-c2ccc3oc(N)nc3c2)c2c(N)ncnc21 + CCN1CCN(Cc2ccc(Nc3ncc(F)c(-c4cc(F)c5nc(C)n(C(C)C)c5c4)n3)nc2)CC1; Yes
C=CC(=O)N1CCN(c2nc(=O)n(-c3c(C)ccnc3C(C)C)c3nc(-c4c(O)cccc4F)c(F)cc23)C(C)C1 (stereo not given) + CCN1CCN(Cc2ccc(Nc3ncc(F)c(-c4cc(F)c5nc(C)n(C(C)C)c5c4)n3)nc2)CC1; No
CC1(C)CCC(CN2CCN(c3ccc(C(=O)NS(=O)(=O)c4ccc(NCC5CCOCC5)c([N+](=O)[O-])c4)c(Oc4cnc5[nH]ccc5c4)c3)CC2)=C(c2ccc(Cl)cc2)C1 + CC(C)NCC(C(=O)N1CCN(c2ncnc3c2C(C)CC3O)CC1)c1ccc(Cl)cc1; No
C=CC(=O)N1CCN(c2nc(=O)n(-c3c(C)ccnc3C(C)C)c3nc(-c4c(O)cccc4F)c(F)cc23)C(C)C1 (stereo not given) + CC(C)NCC(C(=O)N1CCN(c2ncnc3c2C(C)CC3O)CC1)c1ccc(Cl)cc1; No
COc1c(OCCCN2CCOCC2)ccc2c3n(c(=NC(=O)c4cnc(N)nc4)nc12)CCN3 + CCN1CCN(Cc2ccc(Nc3ncc(F)c(-c4cc(F)c5nc(C)n(C(C)C)c5c4)n3)nc2)CC1; Yes
CC(C)n1nc(-c2ccc3oc(N)nc3c2)c2c(N)ncnc21 + CC(C)NCC(C(=O)N1CCN(c2ncnc3c2C(C)CC3O)CC1)c1ccc(Cl)cc1; No
CC1(C)CCC(CN2CCN(c3ccc(C(=O)NS(=O)(=O)c4ccc(NCC5CCOCC5)c([N+](=O)[O-])c4)c(Oc4cnc5[nH]ccc5c4)c3)CC2)=C(c2ccc(Cl)cc2)C1 + CCN1CCN(Cc2ccc(Nc3ncc(F)c(-c4cc(F)c5nc(C)n(C(C)C)c5c4)n3)nc2)CC1; No

Shifting focus to the compound that follows.
Incoming: Determine whether this compound shows viability, T/C lower than 50% (ties excluded): Cn1ncnc1[C@H]1c2n[nH]c(=O)c3cc(F)cc(c23)N[C@@H]1c1ccc(F)cc1 + CC(C)NCC(C(=O)N1CCN(c2ncnc3c2C(C)CC3O)CC1)c1ccc(Cl)cc1
Outgoing: Yes
